Reported IC50 values are given for each entry in this list.
- Assay System: human EP3 receptor (Homo sapiens, UniProt P43115)
- Sequence (P43115 1-390): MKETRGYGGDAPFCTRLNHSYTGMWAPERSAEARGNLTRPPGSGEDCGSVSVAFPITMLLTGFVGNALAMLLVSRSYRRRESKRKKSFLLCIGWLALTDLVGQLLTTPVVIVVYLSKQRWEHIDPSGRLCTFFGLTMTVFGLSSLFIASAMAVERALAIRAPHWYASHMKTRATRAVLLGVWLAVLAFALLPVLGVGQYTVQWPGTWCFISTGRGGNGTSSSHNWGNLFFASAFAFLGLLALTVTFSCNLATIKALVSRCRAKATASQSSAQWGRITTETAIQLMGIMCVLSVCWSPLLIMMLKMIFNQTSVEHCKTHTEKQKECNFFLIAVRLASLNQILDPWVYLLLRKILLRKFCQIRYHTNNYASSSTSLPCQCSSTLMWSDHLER
- Measurement Description: Cellular in vitro assay for determining EP3 receptor activity (human EP3 cell line, sulprostone-stimulated calcium luminescence)
- Condition Notes: CHO cells expressing human EP3 and mitochondrial Clytin; antagonist mode, sulprostone at EC50; read-out: EP3 CHO mtCLY ANTAG IC50
Record the value in nM, omitting the unit from your answer.

Here is how some compounds turned out for IC50.
• Cc1c(C(=O)NCC(C)Cn2cccn2)nn2c(C)c(-c3ccc4ccccc4c3)[nH]c(=O)c12 (stereo not shown) = 1.34
• O=C(NCC(O)(C(F)(F)F)C(F)(F)F)c1nn2cc(-c3ccc(Cl)c(F)c3)[nH]c(=O)c2c1C1CC1 = 4.55
• Cc1c(C(=O)NC(C)c2ccccc2OC(F)F)nn2c(C)c(-c3ccc4ccccc4c3)[nH]c(=O)c12 (stereo not shown) = 3.85
• C[C@@H](CO)NC(=O)c1nn2cc(-c3ccc(Cl)c(Cl)c3)[nH]c(=O)c2c1C1CC1 = 5.55
• Cc1cccc2ncc(-c3cn4nc(C(=O)NC(CO)c5cc(Cl)cc(Cl)c5)c(C(C)C)c4c(=O)[nH]3)cc12 (stereo not shown) = 3.9

Using the record for O=C(N[C@@H](c1ccc(F)cc1)C(F)(F)CO)c1nn2cc(-c3ccc(Cl)c(F)c3)[nH]c(=O)c2c1C1CC1 , report its IC50.
1.73

Thanks! And Cc1cc(-c2cn3nc(C(=O)NC4CC(F)(F)C4)c(C4CC4)c3c(=O)[nH]2)ccc1Cl ?
1.15

----------
- Assay System: human EP3 receptor (Homo sapiens, UniProt P43115)
- Construct: expressed in transfected cells; host or cells: CHO K1 (Chinese Hamster Ovary), stably co-transfected with Galpha16 and mitochondrial clytin
- Measurement Description: Cellular in vitro assay for determining EP3 receptor activity (human EP3 cell line, sulprostone-stimulated calcium luminescence)
- Type: cell-based
- Condition Notes: CHO cells expressing human EP3 and mitochondrial Clytin; antagonist mode, sulprostone at EC50; read-out: EP3 CHO mtCLY ANTAG IC50
- Description: B-1. Cellular In Vitro Assay for Determining EP3 Receptor Activity The identification of antagonists of the EP3 receptor from humans and rats as well as the quantification of the activity of the compounds of the invention was carried out using recombinant cell lines. […] Antagonists inhibit the receptor signaling, leading to reduced calcium release and luminescence. The bioluminescence of the cell lines is detected using a suitable luminometer (Trends Pharmacol. Sci. 1996, 17, 235-237). […]
Assay Endpoint: pIC50
Recall that pIC50 is obtained by taking minus log10 of the concentration measured in molar.

- Cc1ccc(-c2cn3nc(C(=O)NC(C)C4CCC4)c(C4CC4)c3c(=O)[nH]2)cc1Cl (stereo not drawn) [6-279]: 9.31

Now for another entry.
Using the record for CC(C)(C)OC(=O)N1CC(NC(=O)c2cc3c(=O)[nH]c(-c4ccc5ccccc5c4)cn3n2)(c2ccc(F)cc2)C1 [Example 1-47] , report its pIC50.
8.33

meta.source: patent US20220324865A1
